Structures can show the parent of a compound that is named as a salt.
reported endpoint: melting point

# annotated cases, reported melting point shown
CNC(=O)c1ccc(Oc2ccc3c(c2)CCN(C2CCN(C4CCC4)CC2)C3=O)cc1 (as salt: hydrochloride); > 310 °C
CCNC(=O)c1ccc(-c2ccc3c(c2)CCN([C@@H]2CCN(C4CCC4)C2)C3=O)cc1 (as salt: hydrochloride); 268 to 272 °C

Consider the record given below.
Item under review: NC(=O)c1ccc(Oc2ccc3c(c2)CCN(C2CCN(C4CCC4)CC2)C3=O)cc1 (as salt: hydrochloride) . Reported melting point?
309 to 310 °C

###

# Lookup of reported melting point keyed by entry
Counter-ions that a name gives are not always drawn.

For orientation, consider the following solved cases.
CN1CC[C@@H](N2CCc3cc(-c4ccc(C(=O)N5CCCC5)cc4)ccc3C2=O)C1 (as salt: hydrochloride); > 230 °C
CNC(=O)c1ccc(-c2ccc3c(c2)CCN([C@H]2CCN(C4CCC4)C2)C3=O)cc1.Cl; 265 to 266 °C
O=C(c1ccc(-c2ccc3c(c2)CCN(C2CCN(C4CCCC4)CC2)C3=O)cc1)N1CCCC1 (as salt: hydrochloride); > 300 °C

Please find the next compound below.
Tell me the measured melting point of O=C(c1ccc(-c2ccc3c(c2)CCN([C@@H]2CCN(Cc4ccco4)C2)C3=O)cc1)N1CCCC1 (as salt: hydrochloride) , please.
254 to 256 °C
